- assay-details: Rat B/P (brain disposition)
- Format: in vivo, male Sprague-Dawley rats
- experimental-conditions: male, Sprague-Dawley, brain/plasma, po, 3 mg/kg, oral gavage 3 mg/kg, time point 1.0 h, brain free fraction from rat brain slice model
parameter: Kp uu at 1 h
Hey, just send me the number, nothing else.

// Kp uu at 1 h lookup, key: `[2H]C([2H])([2H])c1c2c(nn1C1CCOCC1)OCCCn1nc(Cl)c3cnc(nc31)N2`
0.54

###

- assay-details: Rat B/P (brain disposition)
- Format: in vivo, male Sprague-Dawley rats
- experimental-conditions: male, Sprague-Dawley, brain/plasma, oral gavage 10 mg/kg, time point 1.0 h, mean ± stdev, n = 3
Answer each item with its documented Kp at 1 h.

// Kp at 1 h lookup, key: `Cc1c2c(nn1C1CCOCC1)OCCCn1nc(Br)c3cnc(nc31)N2`
1.97

Please give the result for `[2H]C([2H])([2H])c1c2c(nn1C1CCOCC1)OCCCn1nc(Cl)c3cnc(nc31)N2` too.
1.3

Please give the result for `Cc1c2c(nn1C1CCOCC1)OCCCn1nc(C(F)(F)F)c3cnc(nc31)N2` too.
2.19

Please give the result for `CCc1c2c(nn1C1CCOCC1)OCCCn1nc(Cl)c3cnc(nc31)N2` too.
1.76

Please give the result for Cc1c2c(nn1[C@@H]1CCOC[C@H]1F)OCCCn1nc(Cl)c3cnc(nc31)N2 (single isomer, unassigned) too.
1.65

Please give the result for `Cc1c2c(nn1C1CCOCC1)OCCCn1nc(C3CC3)c3cnc(nc31)N2` too.
0.63

Please give the result for Cc1c2c(nn1[C@H]1CCCOC1)OCCCn1nc(Cl)c3cnc(nc31)N2 (single isomer, unassigned) too.
1.82

Please give the result for `Cc1c2c(nn1[C@H]1CC[C@H](F)CC1)OCCCn1nc(Cl)c3cnc(nc31)N2` too.
2.87

Please give the result for `Clc1nn2c3nc(ncc13)Nc1c(nn(C3CCOCC3)c1C1CC1)OCCC2` too.
1.62

Please give the result for `Cc1c2c(nn1C1(C)COC1)OCCCn1nc(Cl)c3cnc(nc31)N2` too.
1.52

Please give the result for Cc1c2c(nn1[C@@H]1CCO[C@H](C)C1)OCCCn1nc(Cl)c3cnc(nc31)N2 (single isomer, unassigned) too.
1.47
